- Test system: Green peach aphids (Myzus Persicae Sulzer)
- protocol_summary: bioactivity test against green peach aphid, airbrush foliar spray
- Type: in vivo
- condition_summary: 100 mg/L; contrastive test
measure: Insecticidal activity against peach aphid (%)
Provide only the numeric value, understood in %.

Problem: What value of Insecticidal activity against peach aphid (%) has been recorded for this entry: Cc1ncnc(NCCc2ccc(Oc3ccc(C(F)(F)F)cn3)cc2)c1Cl [Compound I-22]
Result: 100

Problem: Same question, CCc1ncnc(NC(C)c2ccc(Oc3ccc(C(C)(C)C)cc3)nc2)c1Cl (centres unmarked) [CK10, reference compound] this time
Result: 91

Problem: Try the compound CC(Cl)c1ncnc(NCCc2ccc(Oc3ncc(C(F)(F)F)cc3Cl)cc2)c1Cl (centres unmarked) [CK44, reference compound]
Result: 98

Problem: Do the same for CCc1ncnc(NCCc2ccc(Oc3ccc(C(F)(F)F)cc3)cc2)c1Cl.Cl please
Result: 100

Problem: Follow-up item: FC(F)c1ncnc(NCCc2ccc(Oc3ccc(Cl)cc3)nc2)c1Cl
Result: 100

Problem: Moving on to CCc1ncnc(NCCc2ccc(Oc3ccccc3)nc2)c1Cl
Result: 100

Problem: Now the compound CCc1ncnc(NCCc2ccc(Oc3ccc(Cl)cc3)nc2)c1Cl
Result: 100

Problem: # iterate: CC(F)c1ncnc(NCCc2ccc(Oc3ncc(C(F)(F)F)cc3Cl)cc2)c1Cl (centres unmarked) [CK2, reference compound]
Result: 100

---

- System: carmine spider mite
- protocol_summary: bioactivity test against carmine spider mite, airbrush spray
- Format: in vivo
- condition_summary: Tetranychus cinnabarinus, 72 h, 10 mg/L; contrastive test; read-out: Insecticidal activity against carmine spider mite (% )
pest or weed control at 10 µg/mL under 10% gets 1.0, anything at or over 10% gets 0.0.

Problem: Confirm or reject: pest or weed control at 10 µg/mL of CC(Cl)c1ncnc(NCc2ccc(Oc3ccc(C(F)(F)F)cn3)cc2)c1Cl (centres unmarked) [CK43, reference compound] lies strictly below 10%
Result: 0.0

Problem: Entry CCc1ncnc(NCCc2ccc(Oc3ccc(Cl)cc3)cc2)c1Cl please
Result: 0.0

Problem: Please answer likewise for CCc1ncnc(NCc2ccc(Oc3ncc(C(F)(F)F)cc3Cl)cc2)c1Cl [CK38, reference compound]
Result: 0.0

Problem: Please give the result for Cc1nc(Cl)cc(NCCc2ccc(Oc3ccc(C#N)cn3)cc2)n1 [CK84, reference compound] too.
Result: 1.0

Problem: Same lookup for Cc1ncnc(NC(C)c2ccc(Oc3ncc(C(F)(F)F)cc3Cl)cc2)c1Cl (centres unmarked) [CK27, reference compound] , please.
Result: 0.0

Problem: Same question for Cc1ncnc(NC(C)c2ccc(Oc3ccc(C(F)(F)F)cc3Cl)cc2)c1Cl (centres unmarked) [CK30, reference compound] please.
Result: 0.0

Problem: Next record, please: CCC(Nc1ncnc(C)c1Cl)c1ccc(Oc2ccc(C(F)(F)F)cn2)cc1 (centres unmarked) [CK41, reference compound]
Result: 1.0

Problem: Try the compound FC(F)(F)c1ccc(Oc2ccc(CCNc3ncnc(Cl)c3Cl)cc2)nc1 [CK73, reference compound]
Result: 0.0

---

For each of the compounds below, state its pest or weed control at 6.25 ppm.
- Test system: cucumber downy mildew
- protocol_summary: protectant activity in vivo against cucumber downy mildew
- condition_summary: Cucumis sativus, 168 h, read-out: protectant activity against cucumber downy mildew in vivo, 6.25 ppm

Problem: Could you share which pest or weed control at 6.25 ppm value was measured for CCc1ncnc(NCCc2ccc(Oc3ccc(C(F)(F)F)cn3)cc2)c1Cl ?
Result: 80 to 99%

Problem: Another: CCc1ncnc(NCCc2ccc(Oc3ccc(C(F)(F)F)cc3)nc2)c1Cl
Result: 100%

Problem: Let us now turn to Cc1ncnc(NCCc2ccc(Oc3ccc(Cl)cc3)nc2)c1Cl
Result: 100%

Problem: Query COc1cc(CCNc2ncnc(C(F)F)c2Cl)ccc1Oc1ccc(Cl)cc1 next
Result: 80 to 99%

Problem: Subsequent entry: Cc1ncnc(NCCc2ccc(Oc3ccc(C(F)(F)F)cn3)cc2)c1Cl
Result: 100%

Problem: Continue with FC(F)c1ncnc(NCCc2ccc(Oc3ccc(Cl)cc3)cc2)c1Cl
Result: 80 to 99%

Problem: Same question, FC(F)c1ncnc(NCCc2ccc(Oc3ccc(Cl)cc3Cl)nc2)c1Cl this time
Result: 80 to 99%

---

- Test system: corn rust
- protocol_summary: protectant activity in vivo against corn rust
- condition_summary: Zea mays, 168 h, read-out: control effect against corn rust (%), 25 mg/L; protectant activity
measure: pest or weed control at 25 µg/mL (%)
The response must be a number in % with no trailing unit.

Problem: Requested read-out: pest or weed control at 25 µg/mL. Entry: CCc1ncnc(NCCc2ccc(Oc3cc(Cl)cc(Cl)c3)cc2)c1Cl
Result: 100

Problem: And what about the compound Cc1ncnc(NC(C)c2ccc(Oc3ncc(C(F)(F)F)cc3Cl)cc2)c1Cl (stereo not shown) [CK27, reference compound] ?
Result: 90

Problem: Would you kindly repeat that for Cc1ncnc(NCc2ccc(Oc3ncc(C(F)(F)F)cc3Cl)cc2)c1Cl [CK23, reference compound] ?
Result: 0

Problem: Similarly, CCOC(=O)c1ccc(Oc2ccc(CCNc3cc(Cl)ncn3)cc2)nc1 [CK74, reference compound] ?
Result: 90

Problem: Thanks! And Cc1ncnc(NC(C)c2ccc(Oc3nc(Cl)c(Cl)cc3Cl)cc2)c1Cl (stereo not shown) [CK29, reference compound] ?
Result: 85

Problem: Subsequent entry: CCc1c(Cl)c(NCCc2ccc(Oc3ccc(C(F)(F)F)cc3)cc2)nc[n+]1CC(=O)c1ccc(Cl)cc1 [CK50, reference compound]
Result: 0

Problem: Let us now turn to FC(F)(F)c1cccnc1Oc1ccc(CCNc2cc(Cl)nc(Cl)n2)cc1 [CK82, reference compound]
Result: 0

Problem: How about this compound: FC(F)(F)c1ccc(Oc2ccc(CCNc3ncnc(Cl)c3Cl)cc2)nc1 [CK73, reference compound]
Result: 10

Problem: Then what about the compound CC(Cl)c1ncnc(NCCc2ccc(Oc3nc(Cl)c(Cl)cc3Cl)cc2)c1Cl (stereo not shown) [CK63, reference compound] ?
Result: 0

Problem: Repeat with CC(Cl)c1ncnc(NCCc2ccc(Oc3ccc(C(F)(F)F)cc3)cc2)c1Cl (stereo not shown) [CK20, reference compound]
Result: 0

Problem: Please answer likewise for Cc1ncnc(NCc2ccc(Oc3ccc(C(F)(F)F)cc3Cl)cc2)c1Cl [CK51, reference compound]
Result: 0

Problem: Also check FC(F)(F)c1ccc(Oc2ccc(CCNc3cc(Cl)ncn3)cc2)nc1 [CK69, reference compound]
Result: 50

Problem: Try FC(F)(F)c1cccnc1Oc1ccc(CCNc2cc(Cl)ncn2)cc1 [CK80, reference compound] next.
Result: 20

Problem: Same for CCC(Nc1ncnc(C)c1Cl)c1ccc(OC(F)F)cc1 (stereo not shown) [diflumetorim, reference compound]
Result: 10

Problem: Query Cc1ncnc(NCCc2ccc(Oc3ccc(C(F)(F)F)cn3)cc2)c1Cl next
Result: 100

Problem: Also COC(=O)c1ccc(Oc2ccc(CCNc3cc(Cl)ncn3)cc2)nc1 [CK77, reference compound] ?
Result: 40

---

Please go through the items and note down their pest or weed control at 10 µg/mL.
- Test system: carmine spider mite
- protocol_summary: bioactivity test against carmine spider mite, airbrush spray
- Format: in vivo
- condition_summary: Tetranychus cinnabarinus, 72 h, 10 mg/L; contrastive test; read-out: Insecticidal activity against carmine spider mite (% )
- Method: Compounds were dissolved in mixed solvent (acetone:methanol=1:1), and diluted to required concentration with water containing 0.1% of tween 80. […] The method: Broadbean shoots with two true leaves in pot were taken, the healthy adults of carmine spider mite were inoculated to the leaves. The adults were counted and then sprayed with airbrush at the pressure of 0.7 kg/cm^2 and at dose of 0.5 ml. […] Scores were conducted and mortalities were calculated after 72 hrs.
I only need the number, in %, no unit after it.

Problem: Could you share which pest or weed control at 10 µg/mL value was measured for Cc1ncnc(NCCc2ccc(Oc3ccc(C(F)(F)F)cc3)cc2)c1Cl ?
Result: 90

Problem: // same read-out, input: Cc1ncnc(NC(=O)Cc2ccc(Oc3ccc(C(F)(F)F)cn3)cc2)c1Cl [CK56, reference compound]
Result: 0

Problem: Also check CCc1ncnc(OCCc2ccc(OCc3ccccc3)cc2)c1Cl [CK14, reference compound]
Result: 6

Problem: Could you do the same for Cc1ncnc(NCCc2ccc(Oc3ccc(C(F)(F)F)cn3)cc2)c1Cl , please?
Result: 87

---

- Test system: cucumber downy mildew
- protocol_summary: protectant activity in vivo against cucumber downy mildew
- condition_summary: Cucumis sativus, 168 h, read-out: control effect against cucumber downy mildew (%), 400 mg/L; protectant activity
Answer each item with its documented pest or weed control at 400 µg/mL.
# value in %; strip the unit string

Problem: Look up pest or weed control at 400 µg/mL for this compound: CC(Cl)c1ncnc(NCc2ccc(Oc3ccc(C(F)(F)F)cn3)cc2)c1Cl (centres unmarked) [CK43, reference compound]
Result: 100

Problem: Proceed to Cc1ncnc(NCc2ccc(Oc3c(Cl)cc([N+](=O)[O-])cc3Cl)cc2)c1Cl [CK65, reference compound]
Result: 0

Problem: Try this compound next: CC(Cl)c1ncnc(NCCc2ccc(Oc3ccc(Cl)nn3)cc2)c1Cl (centres unmarked) [CK62, reference compound]
Result: 80

Problem: Here is the next compound: Cc1ncnc(NC(C)c2cccc3ccccc23)c1Cl (centres unmarked) [CK17, reference compound]
Result: 100

Problem: Would you mind doing CCOC(=O)c1ccc(Oc2ccc(CCNc3nc(Cl)ncc3Cl)cc2)nc1 [CK75, reference compound] as well?
Result: 60

Problem: Note, next up: Cc1ncnc(NC(=O)Cc2ccc(Oc3ccc(C(F)(F)F)cc3)cc2)c1Cl [CK61, reference compound]
Result: 100

Problem: Same question for N#Cc1ccc(Oc2ccc(CCNc3cc(Cl)ncn3)cc2)nc1 [CK83, reference compound] please.
Result: 100

Problem: Next: Cc1nc(Cl)cc(NCCc2ccc(Oc3ccc(C#N)cn3)cc2)n1 [CK84, reference compound]
Result: 100

Origin of values: patent US9770026B2
